Measured Blackgrass plant response rating accompanies every entry in the list below.
- Tested on: blackgrass
- ASSAY PROCEDURE: Test B pre/postemergence blackgrass
- Assay type: in vivo, Alopecurus myosuroides
- EXPERIMENTAL CONTEXT: Rate 125 g/ha, Postemergence; scale 0 to 10, 0 is no effect, 10 is complete control
Please respond with just the number, no unit label.

Enquiry: For the molecule CC(C)N(C(=O)n1oc(=O)n(CCl)c1=O)c1ccc(Cl)cc1 , what Blackgrass plant response rating is on record?
Return: 0

Enquiry: Can you check COC(C)n1c(=O)on(C(=O)N(c2ccc(F)cc2)C(C)C)c1=O (stereo not shown) next?
Return: 0

Enquiry: Can you check CC(C)N(C(=O)n1oc(=O)n(CC#N)c1=O)c1ccc(Cl)cc1 next?
Return: 0

Enquiry: Can you check Cc1nc(C)c(C(C)n2c(=O)on(C(=O)N(c3ccc(F)cc3F)C(C)C)c2=O)s1 (stereo not shown) next?
Return: 0

Enquiry: Can you check CC(C)N(C(=O)n1oc(=O)n(CC#N)c1=O)c1ccc(F)cc1F next?
Return: 0

Enquiry: Can you check CC(C)N(C(=O)n1oc(=O)n(CCl)c1=O)c1ccc(F)cc1F next?
Return: 0

Enquiry: Can you check CC(C)N(C(=O)n1oc(=O)n(CC2=NOCCC2)c1=O)c1ccccc1 next?
Return: 3

---

- Test system: wheat
- ASSAY PROCEDURE: Test B pre/postemergence wheat
- Format: in vivo, Triticum aestivum
- EXPERIMENTAL CONTEXT: Preemergence, Rate 250 g/ha; scale of 0 to 10 where 0 is no effect and 10 is complete control
Measured Wheat plant response rating accompanies every entry in the list below.
Please respond with just the number, no unit label.

Examples from the recorded data:
CC(C)N(C(=O)n1oc(=O)n(C2CCCCCC2)c1=O)c1ccccc1	0
CCC(C)N(C(=O)n1oc(=O)n(-c2ccccc2C)c1=O)c1ccc(F)cc1 (stereo not shown)	0
COCC(C)n1c(=O)on(C(=O)N(c2ccc(F)cc2F)C(C)C)c1=O (stereo not shown)	2
CCC(=O)Cn1c(=O)on(C(=O)N(c2ccc(F)cc2)C(C)C)c1=O	2
CC(C)N(C(=O)n1oc(=O)n(C(C)Cl)c1=O)c1ccc(F)cc1 (stereo not shown)	0
Cc1cc(C)c(-n2c(=O)on(C(=O)N(c3ccc(F)cc3)C(C)C)c2=O)c(Br)c1	0

// moving on: another record for Wheat plant response rating
Enquiry: Reported Wheat plant response rating for wheat, given CC(C)N(C(=O)n1oc(=O)[nH]c1=O)c1ccc(F)cc1F ?
Return: 0

---

Measured Plant response rating, Corn accompanies every entry in the list below.
- System: corn
- ASSAY PROCEDURE: Test B pre/postemergence corn
- Type: in vivo, Zea mays
- EXPERIMENTAL CONTEXT: Postemergence, Rate 62 g/ha; scale 0 to 10, 0 is no effect, 10 is complete control

Examples from the recorded data:
CC[C@@H](C)n1c(=O)on(C(=O)N(c2ccc(F)cc2F)C(C)C)c1=O [Compound 667]	4
CC(C)N(C(=O)n1oc(=O)n(CCCC#N)c1=O)c1ccccc1 [Compound 674]	0
CC(=O)NCn1c(=O)on(C(=O)N(c2ccccc2)C(C)C)c1=O [Compound 621]	0

Enquiry: For the compound CC(=O)NCn1c(=O)on(C(=O)N(c2ccc(F)cc2F)C(C)C)c1=O [Compound 622] , what Plant response rating, Corn is on record?
Return: 0

---

Measured B. signalgrass plant response rating accompanies every entry in the list below.
- Test system: surinam grass
- ASSAY PROCEDURE: Test B pre/postemergence surinam grass
- Format: in vivo, Brachiaria decumbens
- EXPERIMENTAL CONTEXT: Preemergence, Rate 62 g/ha; scale of 0 to 10 where 0 is no effect and 10 is complete control

Examples from the recorded data:
CCC(C)N(C(=O)n1oc(=O)n(C(C)C)c1=O)c1ccc(F)cc1 (centres unmarked) [Compound 689]	2
CC(C)N(C(=O)n1oc(=O)n(CC(=O)C2CCC2)c1=O)c1ccc(Cl)cc1 [Compound 643]	0
CC(C)N(C(=O)n1oc(=O)n(CC(F)F)c1=O)c1ccc(F)cc1F [Compound 711]	2
Cc1ccccc1-n1c(=O)on(C(=O)N(c2ccncc2)C(C)C)c1=O [Compound 301]	0

// moving on: another record for B. signalgrass plant response rating
Enquiry: For the molecule CC(C)N(C(=O)n1oc(=O)n(C(C)C2=NOCC2)c1=O)c1ccc(F)cc1F (racemic) [Compound 730] , what B. signalgrass plant response rating is on record?
Return: 0

---

Measured Plant response rating, Velvetleaf accompanies every entry in the list below.
- System: velvetleaf
- ASSAY PROCEDURE: Test B pre/postemergence velvetleaf
- Assay type: in vivo, Abutilon theophrasti
- EXPERIMENTAL CONTEXT: Preemergence, Rate 250 g/ha; scale 0 to 10 (0 no effect, 10 complete control)
- Description: […] At the same time, these crop and weed species were also treated with postemergence applications of test chemicals formulated in the same manner. […] Treated plants and controls were maintained in a greenhouse for twelve to sixteen days, after which all species were compared to controls and visually evaluated. […]
Please respond with just the number, no unit label.

Examples from the recorded data:
CC(=O)N(C)CCn1c(=O)on(C(=O)N(c2ccc(F)cc2)C(C)C)c1=O	1
CC(C)N(C(=O)n1oc(=O)n(CNC(=O)c2ccccc2)c1=O)c1ccc(F)cc1F	0
CC(=O)NCn1c(=O)on(C(=O)N(c2ccccc2)C(C)C)c1=O	0

// moving on: another record for Plant response rating, Velvetleaf
Enquiry: For the compound CCCCCn1c(=O)on(C(=O)N(c2ccc(F)cc2F)C(C)C)c1=O , what Plant response rating, Velvetleaf is on record?
Return: 2

---

- System: corn
- ASSAY PROCEDURE: Test B pre/postemergence corn
- Format: in vivo, Zea mays
- EXPERIMENTAL CONTEXT: Preemergence, Rate 250 g/ha; scale 0 to 10 (0 no effect, 10 complete control)
METRIC NAME: Plant response rating, Corn
Please respond with just the number, no unit label.

Examples from the recorded data:
CCCCCn1c(=O)on(C(=O)N(c2ccc(F)cc2F)C(C)C)c1=O	0
CC(C)N(C(=O)n1oc(=O)n(CNC(=O)c2ccccc2)c1=O)c1ccc(F)cc1F	0

Enquiry: For the compound CCOC(=O)CC(C(=O)OCC)n1c(=O)on(C(=O)N(c2ccccc2)C(C)C)c1=O (centres unmarked) , what Plant response rating, Corn is on record?
Return: 0

Enquiry: Can you check CC(C)N(C(=O)n1oc(=O)n(CCCC#N)c1=O)c1ccccc1 next?
Return: 5

Enquiry: Can you check CCC(C)N(C(=O)n1oc(=O)n(C(C)C)c1=O)c1ccc(F)cc1 (centres unmarked) next?
Return: 9

---

- System: morningglory
- ASSAY PROCEDURE: Test B pre/postemergence morningglory
- Assay type: in vivo, Ipomoea hederacea
- EXPERIMENTAL CONTEXT: Rate 250 g/ha, Postemergence; scale 0 to 10, 0 is no effect, 10 is complete control
Threshold 7: Plant response rating, Morningglory strictly smaller gives YES, otherwise NO.

Please review the following examples before continuing.
CC(C)N(C(=O)n1oc(=O)n(-c2nc(Cl)sc2Cl)c1=O)c1ccc(F)cc1 [Compound 160]	YES
CC(C)N(C(=O)n1oc(=O)n(-c2cnn(C)c2Cl)c1=O)c1ccccc1 [Compound 122]	YES
Cc1ccccc1Cn1c(=O)on(C(=O)N(c2ccc(Cl)cc2)C(C)C)c1=O [Compound 136]	NO

Would you kindly look at the next entry?
Enquiry: Strictly below 7 in Plant response rating, Morningglory? CC(C)N(C(=O)n1oc(=O)n(CCCl)c1=O)c1ccc(F)cc1 [Compound 148]
Return: YES

---

- System: blackgrass
- ASSAY PROCEDURE: Test B pre/postemergence blackgrass
- Assay type: in vivo, Alopecurus myosuroides
- EXPERIMENTAL CONTEXT: Postemergence, Rate 125 g/ha; scale 0 to 10, 0 is no effect, 10 is complete control
METRIC NAME: Plant response rating, Blackgrass
Please respond with just the number, no unit label.

Examples from the recorded data:
CSCCn1c(=O)on(C(=O)N(c2ccccc2)C(C)C)c1=O	0
CC(C)N(C(=O)n1oc(=O)n(C2(C)CC2)c1=O)c1ccccc1	5
CC(C)N(C(=O)n1oc(=O)n(C2CCCCCC2)c1=O)c1ccccc1	0
COCC(C)n1c(=O)on(C(=O)N(c2ccc(F)cc2F)C(C)C)c1=O (centres unmarked)	8

// moving on: another record for Plant response rating, Blackgrass
Enquiry: Reported Plant response rating, Blackgrass for blackgrass, given CC(C)N(C(=O)n1oc(=O)n(CCCC(F)(F)F)c1=O)c1ccc(F)cc1 ?
Return: 6

---

- System: wheat
- ASSAY PROCEDURE: Test B pre/postemergence wheat
- Format: in vivo, Triticum aestivum
- EXPERIMENTAL CONTEXT: Preemergence, Rate 62 g/ha; scale of 0 to 10 where 0 is no effect and 10 is complete control
METRIC NAME: Wheat plant response rating
Please respond with just the number, no unit label.

C=C(Cn1c(=O)on(C(=O)N(c2ccccc2)C(C)C)c1=O)C(C)(C)C	0
CC(C)N(C(=O)n1oc(=O)n(C(C)C2CC2)c1=O)c1ccc(F)cc1F (centres unmarked)	0
CC(C)N(C(=O)n1oc(=O)n(C2CCCC2)c1=O)c1ccc(Cl)cc1	0

Enquiry: Reported Wheat plant response rating for wheat, given CC(C)N(C(=O)n1oc(=O)n(-c2nc(Cl)sc2Cl)c1=O)c1ccc(F)cc1 ?
Return: 0

Enquiry: Can you check CCCCCn1c(=O)on(C(=O)N(c2ccc(F)cc2F)C(C)C)c1=O next?
Return: 0

Enquiry: Can you check CC(C)N(C(=O)n1oc(=O)n(CC(F)F)c1=O)c1ccc(F)cc1F next?
Return: 2

Enquiry: Can you check CC(C)N(C(=O)n1oc(=O)n([C@H](C)c2ccccc2)c1=O)c1ccc(Cl)cc1 next?
Return: 0

Enquiry: Can you check CCC(C)N(C(=O)n1oc(=O)n(-c2ccccc2C)c1=O)c1ccc(F)cc1 (centres unmarked) next?
Return: 0
